Target: Melanocortin receptor 5 (Homo sapiens)
Sequence (P33032 whole entry): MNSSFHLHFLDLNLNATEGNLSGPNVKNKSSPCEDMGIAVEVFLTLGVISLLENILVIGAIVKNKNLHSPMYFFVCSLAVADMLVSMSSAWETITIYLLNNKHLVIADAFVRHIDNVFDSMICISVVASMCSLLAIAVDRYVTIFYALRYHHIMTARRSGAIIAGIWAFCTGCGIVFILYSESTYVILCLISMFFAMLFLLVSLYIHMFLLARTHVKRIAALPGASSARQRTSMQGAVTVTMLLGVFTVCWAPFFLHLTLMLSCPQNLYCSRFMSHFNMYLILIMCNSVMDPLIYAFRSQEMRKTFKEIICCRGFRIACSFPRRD
Test: Displacement of [125I]NDP-MSH from human recombinant MC5 receptor expressed in Sf9 cells
pKi: −log10 of the molar value.
Label true when pKi is at or above 5; anything below gets false.

These recorded examples may help you get a feel for the data.
| COMPOUND | CLASSIFICATION |
| --- | --- |
| Cc1ccc(CN(C(=O)CCCc2c(Cc3ccc(O)cc3)[nH]c3ccccc23)C2CCC(CC3CCC(N)CC3)CC2)cc1 (stereo not drawn) | true |
| NC1CCC(CC2CCC(N(C/C(Cl)=C/c3ccccc3)C(=O)CCCc3c[nH]c4ccccc34)CC2)CC1 (stereo in doubt; form 3) | true |
| NC1CCC(CC2CCC(N(Cc3ccccc3Cl)C(=O)CCCc3c[nH]c4ccccc34)CC2)CC1 (stereo not drawn) | true |

Lookup: Does NC1CCC(CC2CCC(N(Cc3c(F)cccc3Cl)C(=O)CCCc3c(Cc4ccc(O)cc4)[nH]c4ccccc34)CC2)CC1 (stereo not drawn) have a reported pKi of at least 5?
Found: false

Lookup: Does NC1CCC(CC2CCC(N(C(=O)CCCc3c[nH]c4ccccc34)C3CCc4ccccc4C3)CC2)CC1 (stereo not drawn) have a reported pKi of at least 5?
Found: false

Lookup: Does CC(C)N(CCCCN)C(=O)c1c(Cc2ccc(O)cc2)[nH]c2ccccc12 have a reported pKi of at least 5?
Found: false
